Where do the numbers come from? From the supplement of paper PMC3334620.

- assayed_target: Ybr033w (UniProt P38073)
- Sequence: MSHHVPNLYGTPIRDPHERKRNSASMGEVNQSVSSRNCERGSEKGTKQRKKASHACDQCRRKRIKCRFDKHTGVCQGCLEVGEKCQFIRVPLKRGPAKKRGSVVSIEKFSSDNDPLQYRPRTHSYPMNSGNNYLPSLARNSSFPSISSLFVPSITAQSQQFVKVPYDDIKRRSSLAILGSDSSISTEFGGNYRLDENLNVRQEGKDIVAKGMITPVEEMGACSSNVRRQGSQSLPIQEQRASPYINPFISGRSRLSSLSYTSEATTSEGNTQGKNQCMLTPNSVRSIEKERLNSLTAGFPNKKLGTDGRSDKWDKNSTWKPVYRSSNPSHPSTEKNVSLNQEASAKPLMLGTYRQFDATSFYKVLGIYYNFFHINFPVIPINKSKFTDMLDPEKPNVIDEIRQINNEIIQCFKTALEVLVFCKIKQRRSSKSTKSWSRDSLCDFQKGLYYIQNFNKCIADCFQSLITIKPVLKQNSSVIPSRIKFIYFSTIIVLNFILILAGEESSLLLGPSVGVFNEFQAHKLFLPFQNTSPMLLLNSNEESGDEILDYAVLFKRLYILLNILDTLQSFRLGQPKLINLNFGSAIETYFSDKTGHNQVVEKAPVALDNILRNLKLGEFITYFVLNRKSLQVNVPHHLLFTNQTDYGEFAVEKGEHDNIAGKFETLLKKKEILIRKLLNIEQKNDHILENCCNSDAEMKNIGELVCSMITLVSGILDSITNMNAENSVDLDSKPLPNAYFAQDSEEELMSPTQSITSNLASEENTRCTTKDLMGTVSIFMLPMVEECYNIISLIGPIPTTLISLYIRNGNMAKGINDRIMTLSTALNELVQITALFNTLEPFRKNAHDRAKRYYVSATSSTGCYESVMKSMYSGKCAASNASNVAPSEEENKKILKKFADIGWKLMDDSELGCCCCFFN
- measurement_description: PBM E-score (8-mer binding enrichment) (E-score (-0.5 to 0.5)); higher = stronger / more preferred TF binding
- reported_conditions: protein concentration: 200 nM; construct: GST-full length
The full ranking holds about 33,000 sequences; the median of “E-score (-0.5 to 0.5)” is about -0.012, and the highest 2% start at about 0.29. The full list was thinned out, with the highest values kept by preference.
parameter: PBM E-score
The reply should be a number, written without any unit.

Worked cases, answers included:
{"columns": ["monomer_sequence", "assayed_target", "PBM E-score"],
 "data": [
  ["AAATCTCT", "Ybr033w (UniProt P38073)", 0.152],
  ["GATCAAGA", "Ybr033w (UniProt P38073)", 0.0926],
  ["ACTACTGG", "Ybr033w (UniProt P38073)", 0.017]
]}

Now consider a different sequence.
Please give measured PBM E-score of the following entry: `AAAATGGA`
0.197

---

- assayed_target: Ybr033w (UniProt P38073)
- Sequence: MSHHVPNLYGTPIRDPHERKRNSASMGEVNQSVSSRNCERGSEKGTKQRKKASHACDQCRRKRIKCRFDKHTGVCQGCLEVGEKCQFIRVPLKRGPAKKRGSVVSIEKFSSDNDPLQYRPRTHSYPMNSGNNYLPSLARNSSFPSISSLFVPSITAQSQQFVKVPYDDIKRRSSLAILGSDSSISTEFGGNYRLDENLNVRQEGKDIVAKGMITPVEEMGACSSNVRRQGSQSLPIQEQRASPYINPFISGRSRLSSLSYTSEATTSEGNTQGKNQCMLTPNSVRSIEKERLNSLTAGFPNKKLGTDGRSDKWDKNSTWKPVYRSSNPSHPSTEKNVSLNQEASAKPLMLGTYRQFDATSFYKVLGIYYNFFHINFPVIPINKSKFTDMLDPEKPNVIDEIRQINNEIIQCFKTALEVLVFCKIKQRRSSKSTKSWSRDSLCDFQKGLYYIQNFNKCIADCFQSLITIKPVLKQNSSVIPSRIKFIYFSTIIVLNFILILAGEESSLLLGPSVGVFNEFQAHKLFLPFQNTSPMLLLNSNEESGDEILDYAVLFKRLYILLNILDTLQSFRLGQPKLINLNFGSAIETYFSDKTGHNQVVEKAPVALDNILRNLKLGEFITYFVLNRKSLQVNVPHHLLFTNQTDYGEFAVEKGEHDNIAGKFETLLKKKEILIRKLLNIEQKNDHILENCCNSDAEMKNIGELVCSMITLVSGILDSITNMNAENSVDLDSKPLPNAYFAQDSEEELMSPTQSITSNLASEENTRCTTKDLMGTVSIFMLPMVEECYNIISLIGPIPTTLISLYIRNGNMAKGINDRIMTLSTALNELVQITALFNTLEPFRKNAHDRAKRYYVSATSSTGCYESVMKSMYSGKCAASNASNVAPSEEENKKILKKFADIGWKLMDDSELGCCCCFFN
- measurement_description: PBM E-score (8-mer binding enrichment) (E-score (-0.5 to 0.5)); higher = stronger / more preferred TF binding
- reported_conditions: protein concentration: 200 nM; construct: GST-full length
In all, about 33,000 sequences were measured (“E-score (-0.5 to 0.5)”: median about -0.012, highest 2% from about 0.29 on). The sample as a whole holds a higher share of the highest values than the screen did.
parameter: PBM E-score
The reply should be a number, written without any unit.

Worked cases, answers included:
{"columns": ["monomer_sequence", "parameter", "meas_value"],
 "data": [
  ["CATATCAG", "PBM E-score", 0.0658],
  ["AGTCCTTA", "PBM E-score", -0.049],
  ["AATATCGG", "PBM E-score", 0.198],
  ["AAATTAAC", "PBM E-score", 0.251],
  ["TAGACGCA", "PBM E-score", -0.0494]
]}

Please give measured PBM E-score of the following entry: `ACCCACCC`
0.0336

Please give measured PBM E-score of the following entry: `GTAGACTA`
-0.131
